TESTED SYSTEM: human GR (Homo sapiens)
Construct: naturally expresses the human GR; endogenous in cells
Sequence (P04150 1-777): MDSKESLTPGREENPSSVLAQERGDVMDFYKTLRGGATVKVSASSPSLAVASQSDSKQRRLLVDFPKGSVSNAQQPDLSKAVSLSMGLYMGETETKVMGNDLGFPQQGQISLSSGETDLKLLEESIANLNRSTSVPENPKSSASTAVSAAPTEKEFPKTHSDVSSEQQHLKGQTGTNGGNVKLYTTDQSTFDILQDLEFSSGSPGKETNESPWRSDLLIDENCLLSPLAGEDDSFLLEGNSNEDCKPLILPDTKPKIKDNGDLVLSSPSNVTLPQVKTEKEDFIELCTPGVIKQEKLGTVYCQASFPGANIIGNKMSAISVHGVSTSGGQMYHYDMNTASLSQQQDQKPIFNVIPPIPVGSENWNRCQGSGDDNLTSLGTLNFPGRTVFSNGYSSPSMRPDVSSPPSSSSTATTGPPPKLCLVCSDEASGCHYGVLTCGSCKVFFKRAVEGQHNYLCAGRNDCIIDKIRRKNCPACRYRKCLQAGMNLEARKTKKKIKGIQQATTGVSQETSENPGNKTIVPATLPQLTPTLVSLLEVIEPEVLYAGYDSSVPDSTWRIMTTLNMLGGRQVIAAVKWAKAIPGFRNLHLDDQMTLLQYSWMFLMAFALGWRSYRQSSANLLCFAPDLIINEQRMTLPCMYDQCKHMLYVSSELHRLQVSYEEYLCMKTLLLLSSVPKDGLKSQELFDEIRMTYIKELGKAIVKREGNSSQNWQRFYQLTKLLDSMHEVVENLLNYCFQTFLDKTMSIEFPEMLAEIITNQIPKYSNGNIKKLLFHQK
METHOD NOTES: Transrepression assay (GITAR), TNFα-β-lactamase reporter in U937 cells
Format: cell-based
RUN PARAMETERS: U-937, U937 cells; activity repressed by 100 nM dexamethasone alone set as 100%
Text: Transrepression Assay (GITAR) This assay assesses the ability of test compounds to control transcription from the TNFα-β-lactamase reporter gene in U937 cells, a human myelomonocytic leukemia cell line that naturally expresses the human GR. The assay measures compound dependent-repression of the TNFa promoter linked to a reporter gene. The human U937 cells that had been stablely transfected with the TNF-a promoter driving ˜-lactamase are used for this assay. […]
PROPERTY NAME: Emax

See these solved cases before continuing.
COMPOUND	Emax
CC[C@]12Cc3cnn(-c4ccc(F)cc4)c3C=C1CC[C@@]2(O)CCc1cc(C(F)(F)F)ccn1 [Example 34]	85%
CC[C@]12Cc3cnn(-c4cccnc4)c3C=C1CC[C@@]2(O)CCc1ccc(F)cc1C#N [Example 9]	71%
CC[C@]12Cc3cnn(-c4ccccc4)c3C=C1CC[C@@]2(O)CCc1ncccc1S(=O)(=O)C(C)C [Example 81]	68%
CC(C)(CO)NC(=O)c1cc(F)cnc1CC[C@]1(O)CCC2=Cc3c(cnn3-c3ccc(F)cc3)C[C@@]21C1CC1 [Example 48]	87%

Which measured Emax value corresponds to CC[C@]12Cc3cnn(-c4cccc(F)c4)c3C=C1CC[C@@]2(O)CCc1ccccc1C(N)=O [Example 11] ?
82%

---

TESTED SYSTEM: human GR (Homo sapiens, UniProt P04150)
Construct: naturally expresses the human GR; endogenous in cells
Sequence (P04150 1-777): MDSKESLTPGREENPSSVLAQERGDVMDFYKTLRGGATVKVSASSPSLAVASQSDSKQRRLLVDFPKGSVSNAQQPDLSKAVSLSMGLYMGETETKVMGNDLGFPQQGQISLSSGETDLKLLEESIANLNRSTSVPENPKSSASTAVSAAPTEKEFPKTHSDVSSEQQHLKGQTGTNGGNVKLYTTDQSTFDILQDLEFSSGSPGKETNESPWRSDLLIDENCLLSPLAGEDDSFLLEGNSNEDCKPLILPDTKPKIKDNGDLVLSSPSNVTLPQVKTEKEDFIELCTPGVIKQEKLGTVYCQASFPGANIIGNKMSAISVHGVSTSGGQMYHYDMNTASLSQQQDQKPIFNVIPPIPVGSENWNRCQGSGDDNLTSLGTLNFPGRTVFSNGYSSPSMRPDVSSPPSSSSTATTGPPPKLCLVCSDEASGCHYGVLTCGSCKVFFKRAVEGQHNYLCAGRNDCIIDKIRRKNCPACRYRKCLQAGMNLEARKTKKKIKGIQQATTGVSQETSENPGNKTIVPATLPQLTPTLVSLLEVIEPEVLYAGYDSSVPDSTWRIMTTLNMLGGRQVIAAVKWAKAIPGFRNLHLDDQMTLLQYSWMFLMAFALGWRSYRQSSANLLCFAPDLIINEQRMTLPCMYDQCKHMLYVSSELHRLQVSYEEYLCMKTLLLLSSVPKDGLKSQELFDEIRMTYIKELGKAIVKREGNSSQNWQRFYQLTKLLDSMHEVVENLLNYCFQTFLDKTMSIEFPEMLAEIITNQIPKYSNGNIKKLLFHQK
METHOD NOTES: Trans-activation modulation of glucocorticoid receptor (GRAMMER), MMTV-LUC reporter in A549 cells
Assay type: cell-based
RUN PARAMETERS: A549, A549 cells; Emax relative to the activity obtained with 300 nM dexamethasone; read-out: Transactivation A549 Cells Grammer Emax (%)
PROPERTY NAME: Emax (%)
API: value field is a number in %; no unit string.

These solved cases illustrate the format of a correct answer.
COMPOUND	ENDPOINT VALUE
CC[C@]12Cc3cnn(-c4ccc(F)cc4)c3C=C1CC[C@@]2(O)CCc1ccccc1S(=O)(=O)CC	28
NC(=O)Cc1c(F)cccc1CC[C@]1(O)CCC2=Cc3c(cnn3-c3ccc(F)cc3)C[C@@]21C1CC1	13
CC[C@]12Cc3cnn(-c4ccccc4)c3C=C1CC[C@@]2(O)CC(O)c1ccccn1 (single isomer, unassigned) [Example 67a]	20

Value lookup for Emax; key = CC[C@]12Cc3cnn(-c4ccccc4)c3C=C1CC[C@@]2(O)CCc1cccc(F)c1C#N
29

Now the compound CC[C@]12Cc3cnn(-c4cccnc4)c3C=C1CC[C@@]2(O)CCc1ccc(F)cc1C#N
15

// query: OC(C[C@]1(O)CCC2=Cc3c(cnn3-c3ccc(F)cc3)C[C@@]21C1CC1)c1ccc(F)cn1 (single isomer, unassigned) [Example 79a]
10

Try this compound next: NC(=O)CNC(=O)c1ccccc1CC[C@]1(O)CCC2=Cc3c(cnn3-c3ccc(F)cc3)C[C@@]21C1CC1
46

---

The reader will find reported Emax values listed item by item below.
TESTED SYSTEM: human GR (Homo sapiens, UniProt P04150)
Construct: naturally expresses the human GR; endogenous in cells
METHOD NOTES: Trans-activation modulation of glucocorticoid receptor (GRAMMER), MMTV-LUC reporter in A549 cells
Type: cell-based
RUN PARAMETERS: A549, A549 cells; Emax relative to the activity obtained with 300 nM dexamethasone; read-out: Transactivation A549 Cells Grammer Emax (%)
Entry format: amount then unit.

COMPOUND	Emax
CC[C@]12Cc3cnn(-c4ccc(F)cc4)c3C=C1CC[C@@]2(O)CCc1ccccc1S(C)(=O)=O	34%

Which Emax value is on record for CC[C@]12Cc3cnn(-c4cccc(F)c4)c3C=C1CC[C@@]2(O)CCc1ccccc1C(N)=O ?
41%

Again, but for CC[C@]12Cc3cnn(-c4ccccc4)c3C=C1CC[C@@]2(O)CCc1ccccc1C(N)=O
51%

Same question for CC[C@]12Cc3cnn(-c4ccc(F)cc4)c3C=C1CC[C@@]2(O)CC(O)c1ncccc1Cl (stereo partly shown) please.
31%

---

TESTED SYSTEM: human GR (Homo sapiens, UniProt P04150)
Construct: naturally expresses the human GR; endogenous in cells
Sequence (P04150 1-777): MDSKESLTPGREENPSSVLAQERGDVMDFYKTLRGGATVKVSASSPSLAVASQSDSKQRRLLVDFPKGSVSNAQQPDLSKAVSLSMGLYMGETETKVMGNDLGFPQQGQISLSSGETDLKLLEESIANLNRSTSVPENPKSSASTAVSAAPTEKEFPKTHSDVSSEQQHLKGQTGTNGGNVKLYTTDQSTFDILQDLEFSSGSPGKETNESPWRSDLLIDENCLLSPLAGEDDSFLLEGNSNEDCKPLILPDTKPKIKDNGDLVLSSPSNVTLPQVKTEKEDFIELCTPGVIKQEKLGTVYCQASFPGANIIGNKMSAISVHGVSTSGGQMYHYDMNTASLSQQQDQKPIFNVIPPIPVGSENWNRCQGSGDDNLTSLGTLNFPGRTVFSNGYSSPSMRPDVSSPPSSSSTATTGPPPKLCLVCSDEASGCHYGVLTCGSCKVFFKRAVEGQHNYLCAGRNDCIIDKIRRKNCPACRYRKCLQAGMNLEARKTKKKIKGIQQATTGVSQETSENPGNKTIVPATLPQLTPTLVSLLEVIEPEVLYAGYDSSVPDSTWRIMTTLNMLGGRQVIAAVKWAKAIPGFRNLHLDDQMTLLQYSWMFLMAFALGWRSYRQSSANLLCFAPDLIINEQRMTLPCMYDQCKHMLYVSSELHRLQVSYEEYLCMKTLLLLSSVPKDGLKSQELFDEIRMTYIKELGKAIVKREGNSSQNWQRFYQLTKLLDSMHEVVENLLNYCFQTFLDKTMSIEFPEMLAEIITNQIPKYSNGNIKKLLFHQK
METHOD NOTES: Transrepression assay (GITAR), TNFα-β-lactamase reporter in U937 cells
Assay type: cell-based
RUN PARAMETERS: U937 cells; IP = inflection point
# label = criterion met if EC50 < 60 nM else criterion not met

# example entries with known answers
COMPOUND	CLASS LABEL
CC[C@]12Cc3cnn(-c4ccc(F)cc4)c3C=C1CC[C@@]2(O)CC1OC(=O)c2ccccc21 (stereo partly shown)	criterion not met
CC[C@]12Cc3cnn(-c4cccnc4)c3C=C1CC[C@@]2(O)CCc1ccccc1C(N)=O	criterion not met
CC[C@]12Cc3cnn(-c4ccc(F)cc4)c3C=C1CC[C@@]2(O)CCc1ccccc1S(C)(=O)=O	criterion met

Given CC[C@]12Cc3cnn(-c4ccc(F)cc4)c3C=C1CC[C@@]2(O)CCc1ccccc1S(=O)(=O)C(C)C , is recorded EC50 strictly lower than 60 nM?
criterion met

What about CC[C@]12Cc3cnn(-c4ccc(F)cc4)c3C=C1CC[C@@]2(O)CCc1ccccc1S(=O)(=O)CC ?
criterion not met

Repeat for the following compound: O=S(=O)(c1ccccc1CC[C@]1(O)CCC2=Cc3c(cnn3-c3ccc(F)cc3)C[C@@]21C1CC1)C1CC1
criterion not met

Then CC[C@]12Cc3cnn(-c4ccc(F)cc4)c3C=C1CC[C@@]2(O)CCc1ccccc1C(O)C(N)=O (stereo partly shown) [Example 26] ?
criterion met
